System: LgTrip 3546 (with His tag; SEQ ID NO: 51)
Sequence (chain, as listed by the source): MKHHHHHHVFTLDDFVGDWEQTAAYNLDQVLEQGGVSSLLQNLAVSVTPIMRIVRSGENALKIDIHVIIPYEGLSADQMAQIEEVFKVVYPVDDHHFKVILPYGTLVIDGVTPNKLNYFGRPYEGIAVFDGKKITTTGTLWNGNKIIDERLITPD
Assay explanation: luminescence complementation
Particulars: modification not given
Reported metric: Kd (µM)
Quick reminder: number only, in µM, skip the unit.

Task: Param item = GKMLFRVTIESWK [622] ; retrieve measured Kd.
Output: 2.88

Just for reference, patent US20200270586A1 is where these values come from.
